Answer each item with its documented peptide exchange yield.
Molecular target: HLA-A*24 (human)
Test: UV peptide-exchange ELISA, yield grade

NYINRILKL [… (SEQ ID NO: 167)] : > 75%

Items follow; give peptide exchange yield for each.
1. VYWDSAGAAHF [… (SEQ ID NO: 202)]
2. WYVNGVNYF [… (SEQ ID NO: 189)]
3. GFFIFNERF [… (SEQ ID NO: 190)]
4. IYTMIYRNL [… (SEQ ID NO: 210)]
5. RYPDNLKHL [… (SEQ ID NO: 286)]
6. EYINQGDLHEF [… (SEQ ID NO: 275)]

Reply:
["> 75%", "20 to 49%", "50 to 75%", "> 75%", "20 to 49%", "50 to 75%"]

The binder IFIEVFSHF [… (SEQ ID NO: 178)] showed peptide exchange yield equal to 50 to 75%
